Assay: NCI Yeast Anticancer Drug Screen. Data for the rad50 strain (AID 155)
Conditions: S. cerevisiae rad50 strain growth inhibition; at 50.0 µM
The panel holds about 79,000 compounds, 15% with a hit somewhere; the sample as a whole holds those more often. Calls of active or inactive are those of the source. Cut-off read from the data, not from the text of the source: active = growth inhibition above about 70%; inactive = the rest.
Pick one and only one: active, inactive

Observe how each entry below is paired with its result.
{"MOLECULE": "Nc1cccc2c1[nH]c(=O)c1ccccc12", "CLASS_LABEL": "active"}
{"MOLECULE": "CCOC(=O)c1c(NC(=O)CBr)sc(C)c1C", "CLASS_LABEL": "inactive"}
{"MOLECULE": "CC(C)CCCCCCCCCCCCC(=O)NCC(=O)NC1C(O)C(O)C(Nc2ncnc3nc[nH]c23)OC1C(O)CO (configuration not stated)", "CLASS_LABEL": "inactive"}
{"MOLECULE": "CCCOC1(C)CC(c2cc(OC)c(OC)c(OC)c2)c2cc3c(cc2O1)OCO3 (configuration not stated)", "CLASS_LABEL": "inactive"}
{"MOLECULE": "CCCCC#C[I+]c1ccccc1", "CLASS_LABEL": "active"}

We now examine a further molecule.
Exam item: Any idea what this test logged for CC1C(c2ccc(Cl)cc2)c2cc3c(cc2OC1N1CCOCC1)OCO3 (configuration not stated) ?
Marked response: inactive
